- measurementTarget: 5-hydroxytryptamine receptor 6 (Homo sapiens, UniProt P50406)
- Sequence (P50406 whole entry): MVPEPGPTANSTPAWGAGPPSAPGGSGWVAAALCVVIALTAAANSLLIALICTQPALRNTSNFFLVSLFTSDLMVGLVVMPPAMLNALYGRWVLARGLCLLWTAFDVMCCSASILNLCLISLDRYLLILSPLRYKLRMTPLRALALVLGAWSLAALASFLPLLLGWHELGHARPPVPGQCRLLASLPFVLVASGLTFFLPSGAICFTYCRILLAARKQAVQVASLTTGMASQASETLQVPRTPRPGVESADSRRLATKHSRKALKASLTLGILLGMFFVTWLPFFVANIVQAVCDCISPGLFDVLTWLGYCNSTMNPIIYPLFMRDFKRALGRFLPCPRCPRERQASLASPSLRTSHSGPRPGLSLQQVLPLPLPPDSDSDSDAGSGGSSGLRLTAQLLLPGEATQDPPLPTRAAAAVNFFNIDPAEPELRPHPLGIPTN
Could you mark each record y if its Ki falls strictly under 10 nM, and n if it equals or exceeds it?

testsmiles=Nc1ccc(S(=O)(=O)n2ccc3c(N4CCNCC4)cccc32)cc1 qualitativelabel=y
testsmiles=Nc1ccc(S(=O)(=O)n2ccc3c([N+](=O)[O-])cc([N+](=O)[O-])cc32)cc1 qualitativelabel=n
testsmiles=c1cc(N2CCNCC2)c2cc[nH]c2c1 qualitativelabel=n
testsmiles=CNc1ccc2ccn(S(=O)(=O)c3ccc(N)cc3)c2c1 qualitativelabel=y
testsmiles=CNc1cc(NC)c2ccn(S(=O)(=O)c3ccc(N)cc3)c2c1 qualitativelabel=y
